Test: basal 3T3-L1 adipocyte mitochondrial potential changes, profiling panel, cell-based, JC-1 fluorescence, 3T3-L1 adipocytes, 24 h, 100 nL compound (AID 1168); note: test concentration not given here
Conditions: JC-1 mitochondrial fluorescence, higher = more signal, called active from +8 up or from −8 down
Please enter criterion met where z-score is greater than or equal to -0.2, and criterion not met where it is lower.

Example results:
COC(=O)[C@@]1(Cc2ccc(F)cc2)[C@H]2c3cc(C(=O)N(C)C)n(Cc4ccc(O)c(OC)c4)c3C[C@H]2CN1C(=O)c1ccccc1    criterion not met
CCOC(=O)C[C@H]1[C@H](OC(=O)c2ccccc2-c2ccccc2)[C@@H](NC(=O)c2ccccc2)c2cc(OCCCO)ccc2N1C(=O)c1ccccc1    criterion met
COc1ccc(NC(=O)O[C@H]2[C@@H]3OC(=O)[C@H](Cc4cccc(Br)c4)C/C=C/C[C@@H](Cc4cccc(Br)c4)C(=O)O[C@H]3[C@@H](OC)O[C@@H]2CO)cc1    criterion not met
Cc1ccc(S[C@]2(C(=O)NCc3ccccc3)CC(=O)N(Cc3cc(C(F)(F)F)cc(C(F)(F)F)c3)[C@@H]2c2ccc(CO)cc2I)cc1    criterion met
Cc1ccccc1C(O)C1C=CC2C(=O)NC(=O)C2N1Nc1ccc(Cl)cc1Cl (stereo not drawn)    criterion not met

// query Does z-score meet or surpass -0.2 for COC(=O)C(CC#Cc1ccc2c(c1)[C@]1(C(=O)N2)[C@H](C(=O)Nc2nc3ccccc3s2)[C@H]2C(=O)O[C@H](c3ccccc3)[C@H](c3ccccc3)N2[C@@H]1c1ccc(OCCO)cc1)C(=O)OC ?
// result criterion met

// query Kindly determine if z-score recorded for C=CCN1C(=O)[C@@]2(O[C@@H](CCO)[C@H]([Si](C)(C)c3ccc(OC)cc3)[C@H]2C)c2cc(N3CCOC3=O)ccc21 is above or exactly -0.2.
// result criterion met

// query Is the recorded value of z-score equal to or greater than -0.2 for this compound? CC(C)CNC(=O)[C@@H]1c2ccccc2C(=O)N(C2CCCCC2)[C@H]1c1ccc(CO)cc1
// result criterion met

// query Threshold query (z-score >= -0.2) on COCCOC(=O)N1C(=O)[C@@]2(c3cc(C#CCC(C(=O)OC)C(=O)OC)ccc31)[C@H](c1ccc(O)cc1)N1[C@H](c3ccccc3)[C@H](c3ccccc3)OC(=O)[C@H]1[C@@H]2C(=O)NC[C@H](O)c1ccccc1
// result criterion not met

// query # bool: z-score of O=C1O[C@H](c2ccccc2)[C@H](c2ccccc2)N2[C@H]1[C@@H](C(=O)Nc1nc3ccccc3s1)[C@]1(C(=O)Nc3ccc(C#CC4=CCCCC4)cc31)[C@H]2c1ccc(O)cc1 >= -0.2
// result criterion not met

// query hey, is z-score for this one >= -0.2? C=C[C@H](C)[C@H](OC(=O)Nc1ccc(OC)cc1)c1ccc(OCCO)cc1
// result criterion met

// query Can COC(=O)[C@@]1(Cc2ccc(F)cc2)[C@H]2c3cc(C(=O)N4CCCC4)n(C)c3C[C@H]2CN1C(=O)c1ccccc1 be said to have z-score at or above -0.2?
// result criterion not met

// query Is z-score for CN1C(=O)C2C=CC(C(O)c3ccc(I)cc3)N(Nc3ccccc3)C2C1=O (stereo not drawn) at or above -0.2?
// result criterion not met

----------
Experiment: small-molecule microarray binders of probe aWnt5a, primary screen, biochemical, biotinylated probe, 635/667 nm fluorescence (AID 1113);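 note: score merges 667 nm fluorescence intensity with signal-to-noise per printed feature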
Conditions: higher = more signal
Attribute: composite z-score
Number, no unit, nothing else.

Previously resolved entries follow.
COC(=O)[C@@]1(Cc2ccc(OC)cc2)[C@H]2c3cc(C(=O)N4CCCC4)n(Cc4ccc(OC(F)(F)F)cc4)c3C[C@H]2CN1C(=O)c1ccccc1    0.402
COCCOC(=O)N1C(=O)[C@@]2(c3cc(C#CCCO)ccc31)[C@H](c1ccccc1OCCO)N1[C@H](c3ccccc3)[C@H](c3ccccc3)OC(=O)[C@H]1[C@@H]2C(=O)N1CCCCCCC1    0.495
CCN(CC)c1ccc(N2CC=CC34O[C@@H]5C=CCCOC(=O)C5[C@H]3C(=O)N(CCO)[C@@H]4C2=O)cc1 (stereo partly specified)    -0.214
CN(C)C(=O)[C@@]1(Cc2ccccc2N=[N+]=[N-])N=C(c2ccc(OCCCO)cc2)O[C@H]1c1ccccc1    0.103
CN(C)C(=O)[C@@]1(Cc2ccccc2)COC(c2ccc(OCCCO)cc2)=N1    -0.319
CCCCC(=C=CC[C@H](O)c1ccc(OCCO)cc1)C[C@H](O)c1cc(Cl)cc(Cl)c1O    -0.198
C=C(COC)C(=O)CC[C@@H](OC(=O)c1cccnc1)c1ccccc1OCCO    -0.096
CCOC(=O)C1=CC[C@@H](c2ccccc2)N(S(=O)(=O)c2ccc(C)cc2)[C@H]1c1cccc(OC)c1    0.0422

// query GET /values?readout=composite z-score&item= COc1cc2c(cc1O)C(c1cccs1)N(Cc1sc3ccccc3c1Cl)CC2 (stereo unspecified)
// result -0.0345

// query Reported composite z-score, molecule O=C1c2ccccc2[C@](Cc2ccccc2I)(C(=O)NC2CC2)[C@H](c2ccc(CO)cc2)N1Cc1ccccc1C(F)(F)F : ____
// result -0.0735

// query # query: composite z-score of entry CN1C(=O)C2C=CC(C(O)c3cc(C(F)(F)F)cc(C(F)(F)F)c3)N(Nc3ccccc3)C2C1=O (stereo unspecified)
// result -0.0346

// query I'd like to know its composite z-score. The molecule in question is C=C(C(=O)CC[C@H](OC(=O)c1ccccc1-c1ccccc1C(=O)O)c1ccccc1OCCO)C(C)C
// result -0.0573

// query Dear colleague, I am looking for the recorded composite z-score of the following molecule: CCN(CC)c1ccc(N2CC=CC34O[C@@H]5/C=C\CCC(C)OC(=O)C5[C@H]3C(=O)N(C(C)CO)[C@@H]4C2=O)cc1 (stereo partly specified)
// result -0.0346

// query If you can, please state the reported composite z-score value of COc1ccc([Si](C)(C)[C@H]2[C@H](CCO)O[C@@]3(C(=O)N(Cc4ccccc4)c4ccc(N5CCOC5=O)cc43)[C@@H]2C)cc1 .
// result -0.0239

----------
System: Neuregulin-1 EGF-like domain
Assay: binders of neuregulin-1 EGF-like domain, primary screen, biochemical, small-molecule microarray, 635 nm fluorescence (AID 1081);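 note: binding of the protein to compounds printed on small-molecule microarray slides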
Conditions: small-molecule microarray binding, higher = more signal
Listed molecules paired with reported composite z-score

COc1ccc(NC(=O)O[C@H]2[C@@H]3OC(=O)[C@H](Cc4cccc(Br)c4)C/C=C/C[C@@H](Cc4cccc(Br)c4)C(=O)O[C@H]3[C@@H](OC)O[C@@H]2CO)cc1    0.453
COC(=O)[C@@]1(Cc2ccc(F)cc2)[C@H]2c3cc(C(=O)N4CCCC4)n(C)c3C[C@H]2CN1C(=O)c1ccccc1    1.34
CC(CO)N1C(=O)[C@@H]2[C@H]3C(=O)OCC=C[C@H]3OC23C=CCN(c2ccc(Cl)cc2)C(=O)[C@@H]13 (some centres not stated)    0.688

// query Looking for the measured composite z-score of Cc1ccccc1C(O)C1C=CC2C(=O)N(c3ccccc3)C(=O)C2N1Nc1ccc([N+](=O)[O-])cc1 (configuration not stated) , can you help?
// result 1.27

// query Give its composite z-score value. Item: C=C(COC)/C(=C/C[C@H](OC(C)=O)c1cccc(OCCO)c1)c1cnc2ccccc2c1
// result 1.11

// query Which composite z-score is reported for this molecule? O=C(O)[C@H]1C[C@H]2C(=O)N[C@@H](Cc3ccccc3)C(=O)N2[C@H]1c1cccc(OCCO)c1
// result 1.44

// query What does the data say about its composite z-score? Entry: CO[C@H]1O[C@H](CO)[C@@H](OC(=O)CCc2ccccc2)[C@H](OC(=O)c2cc3ccccc3[nH]2)[C@H]1OC(=O)c1cc2ccccc2[nH]1
// result 1.02

----------
Test: HepG2 cell viability effects, profiling panel, calcein-AM fluorescence, 48 h, basal (AID 1164); note: test concentration not given here
Settings: higher = more signal
// z-score lookup, one value per entry
Reply briefly: the number, and no unit.

O=C1O[C@H](c2ccccc2)[C@H](c2ccccc2)N2[C@H]1[C@@H](C(=O)N1CCCCCCC1)[C@]1(C(=O)Nc3ccc(C#CC4(O)CCCCCC4)cc31)[C@H]2c1ccc(O)cc1    1.68
CC(C)C[C@@H]1NC(=O)[C@H]2C[C@@H](C(=O)NCCCCCN)[C@@H](c3cccc(OCCO)c3)N2C1=O    1.3

Now look at this one.
// query Which value of z-score has been reported for CC(C)[C@H]1NC(=O)[C@@]23C(=O)N[C@@H](Cc4ccccc4)C2[C@H](C)[C@@]2(C)O[C@H]2C3/C=C/C/C=C\CNC(=O)[C@H](Cc2ccccc2)NC1=O (stereo partly drawn) in the records?
// result 0.42
